Biological target: T1, recombinant human IL-25 protein (human, UniProt Q9H293 33-177)
T1 construct: Bought (Acro, catalog no: IL5-H4221) for ELISA; also called hIL-25; IL-17E
T1 sequence: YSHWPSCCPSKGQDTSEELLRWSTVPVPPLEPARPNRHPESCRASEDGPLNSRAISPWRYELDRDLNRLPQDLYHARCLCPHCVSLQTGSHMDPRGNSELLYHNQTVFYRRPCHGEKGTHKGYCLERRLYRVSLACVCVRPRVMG
Assay: BLI (Octet), antibody captured on anti-human Fc biosensor, human IL-25 as analyte
ASSAY_ENDPOINT: Kd

{"BINDER": "IL25Ab1 (antibody, V domains shown) VH: QVQLKESGPGLVAPSQSLSITCTVSGFSLTDYGINWVRQPPGKGLEWLGMIWGDGVTHYNSVLKSRLSISKDNSMSQIFLKMNSLQTDDTARYYCARTLFYDGTLYYYAMDYWGQGTSVTVSS VL: QIVLTQSPATMSASPGEKVTMTCSASSSVTYMYWYQQKTGSSPRLLIYDTPNLASGVPVRFSGSGSGTSYSLTISRVEAEDAATYYCQQWSSYPHTWTFGGGTKLEIK", "ENDPOINT_VALUE": "< 1 pM"}
{"BINDER": "IL25Ab3 (antibody, V domains shown, detected with anti-human IgG or anti-human kappa reagents; also called anti-IL-25Ab3; mouse origin of anti-IL-25 specific antibody) VH: EVQLQQSGPELVKPGGSVRISCKASGYSFTGYTMNWVKQSHGKNLEWIGLINPDNGGTSHKQRFMGKATLTVDKSSSTAYMELLSLTSEDSAVYYCAREGYYGPSPFHHYAMDYWGQGTSVTVSS VL: DIQMTQTTSSLSASLGDRVTISCSASQDISNYLNWYQQKPDGTIKLLIYYTSTLHSGVPSRFSGSGSGTDYSLTISNLEPEDIATYYCQQYSKLPYTFGGGTKLEIK", "ENDPOINT_VALUE": "< 1 pM"}
